Provenance of the data: patent US20100215579A1

assayMethodText: Biodistribution in ICR mice after an iv injection
Type: in vivo
measurementSetup: Blood, 2 min after iv injection
Source text: Biodistribution in ICR Mice After an iv Injection of [^18F][4-(6-{2-[2-(2-Fluoro-ethoxy)-ethoxy]-ethoxy}-naphthalen-2-yl)-phenyl]-methyl-amine in 1% EtOH/0.1% BSA in Water (% dose/organ, avg of 3 mice±SD) (% dose/g, avg of 3 mice±SD) Biodistribution in ICR Mice After an iv Injection of [^18F]19a in 3% EtOH/0.1% BSA in Water Biodistribution in ICR Mice After an iv Injection of [^18F]34a in 5% EtOH/0.1% BSA in Water […]
quantity: % dose/g

I would be grateful if you could share the reported % dose/g for CNc1ccc2cc(-c3ccc(OCCOCCOCC[18F])cc3)ccc2c1 [[^18F]19a] .
6.66 ± 0.86 % dose/g

For each of the items listed, what is its % dose/g?
1. CN(C)c1ccc(-c2ccc3nc(OCCOCCOCC[18F])ccc3c2)cc1 [[^18F]32a]
2. CNc1ccc(-c2ccc3cc(OCCOCCOCCF)ccc3c2)cc1
3. CNc1ccc(-c2ccc3nc(OCCOCCOCC[18F])ccc3c2)cc1 [[^18F]34a]

1.80 ± 0.28 % dose/g
2.08 ± 0.20 % dose/g
2.50 ± 0.14 % dose/g

----------
assayMethodText: Biodistribution in ICR mice after an iv injection
Assay type: in vivo
measurementSetup: Liver, 1 hr after iv injection
Exercise: for every item that follows, state its recorded % dose/g.
Answers are plain numbers, in % dose/g.

Sample records with % dose/g:
Endpoint output: % dose/g of CNc1ccc(-c2ccc3cc(OCCOCCOCCF)ccc3c2)cc1 . Value?
9.46

// next record CN(C)c1ccc(-c2ccc3nc(OCCOCCOCC[18F])ccc3c2)cc1 [[^18F]32a]
8.10

Can you give me % dose/g for all of these, one by one?
1. CNc1ccc2cc(-c3ccc(OCCOCCOCC[18F])cc3)ccc2c1 [[^18F]19a]
2. CNc1ccc(-c2ccc3nc(OCCOCCOCC[18F])ccc3c2)cc1 [[^18F]34a]

1: 14.1; 2: 8.99

----------
assayMethodText: Biodistribution in ICR mice after an iv injection
Format: in vivo
measurementSetup: Liver, 30 min after iv injection
Assignment: determine reported % dose/g for the given molecules.
Answers are plain numbers, in % dose/g.

Some solved entries appear below for comparison.
Give the measured % dose/g of CNc1ccc(-c2ccc3cc(OCCOCCOCCF)ccc3c2)cc1 .
13.4

# iterate: CNc1ccc(-c2ccc3nc(OCCOCCOCC[18F])ccc3c2)cc1 [[^18F]34a]
11.9

Try the molecule CN(C)c1ccc(-c2ccc3nc(OCCOCCOCC[18F])ccc3c2)cc1 [[^18F]32a]
8.02

Now consider a different molecule.
Record request: % dose/g value, item CNc1ccc2cc(-c3ccc(OCCOCCOCC[18F])cc3)ccc2c1 [[^18F]19a]
21.5

----------
Record form. Attribute: % dose/organ. Fill in for each entry.
assayMethodText: Biodistribution in ICR mice after an iv injection
Assay type: in vivo
measurementSetup: Blood, 2 min after iv injection
Answers are plain numbers, in % dose/organ.

So what does the record say about % dose/organ for CN(C)c1ccc(-c2ccc3nc(OCCOCCOCC[18F])ccc3c2)cc1 [[^18F]32a] ?
3.32

What about CNc1ccc2cc(-c3ccc(OCCOCCOCC[18F])cc3)ccc2c1 [[^18F]19a] ?
11.1

Follow-up item: CNc1ccc(-c2ccc3nc(OCCOCCOCC[18F])ccc3c2)cc1 [[^18F]34a]
4.29

Now let's try a different one.
Report % dose/organ for CNc1ccc(-c2ccc3cc(OCCOCCOCCF)ccc3c2)cc1 please.
3.50
